Source of measurements: patent US20260125382A1

Biological target: CDK2 (Homo sapiens, UniProt P24941)
Construct: endogenous in cells; host or cells: MDA-MB-231
Assay: CDK protein degradation activity (Western blotting), CDK2
Assay type: cell-based
Settings: MDA-MB-231 cells, 10 μM, 16 hours, Western blot
RECORDED_ENDPOINT: Enzyme degradation CDK2 (% remaining) @ 10 μM (%)

>  <COMPOUND>
Cc1cccc(C(=O)NC2CC(n3cnc4c(NCc5cccc(N6CCN(CC7CCN(C(=O)COc8ccc9c(c8)C(=O)N([C@H]8CCC(=O)NC8=O)C9=O)CC7)CC6)c5)ncnc43)C2)n1 (some centres unmarked)

>  <UNIT_ANNOTATION>
%

>  <EXPERIMENTAL_VALUE>
80

$$$$

1 = O=C1CC[C@H](N2C(=O)c3ccc(OCC(=O)N4CCC(CN5CCC(c6ccc(Nc7ncnc8c7ncn8C7CC(NC(=O)Cc8ccccc8)C7)cc6)CC5)CC4)cc3C2=O)C(=O)N1 (some centres unmarked)
2 = O=C1CC[C@@H](c2cccc(OCC(=O)N3CCN(CCCN4CCN(c5ccc(Nc6ncnc7c6ncn7C6CC(NC(=O)Cc7ccccc7)C6)cc5)CC4)CC3)c2)C(=O)N1 (some centres unmarked)
stdin: Pick one: 1 or 2 . Which one has the lower reported Enzyme degradation CDK2 (% remaining) @ 10 μM? In your reply, give the label of the chosen option.
stdout: 2
(2: 0%, 1: 70%)
